Each recorded value in this set is attributed to paper PMC7587962.

test system: Prostate cancer subpanel; assay: NCI-60 screen, subpanel Prostate cancer
Use 1 when the recorded MID b, average sensitivity of all cell line of particular subpanel is no lower than 8 µM; use -1 when it is lower.

Solved cases below.
INSERT INTO results (molecule, group) VALUES
  ('C=C(C)[C@@H]1CC[C@]2(C(=O)NCCNCCNCCN)CC[C@]3(C)[C@H](CC[C@@H]4[C@@]5(C)CCC(=O)C(C)(C)[C@@H]5CC[C@]43C)[C@@H]12', -1),
  ('C=C(C)[C@@H]1CC[C@]2(C(N)=O)CC[C@]3(C)[C@H](CC[C@@H]4[C@@]5(C)CC[C@H](O)C(C)(C)[C@@H]5CC[C@]43C)[C@@H]12', -1);

Exam item: Has C=C(C)[C@@H]1CC[C@]2(C(=O)NCCCN)CC[C@]3(C)[C@H](CC[C@@H]4[C@@]5(C)CCC(=O)C(C)(C)[C@@H]5CC[C@]43C)[C@@H]12 a recorded MID b, average sensitivity of all cell line of particular subpanel greater than or equal to 8 µM?
Marked response: 1

Exam item: Has CC(=O)OCC12CCC(C(C)C(N)=O)C1C1CCC3C4(C)CCC(OC(C)=O)C(C)(C)C4CCC3(C)C1(C)CC2 (stereo not drawn) a recorded MID b, average sensitivity of all cell line of particular subpanel greater than or equal to 8 µM?
Marked response: -1

Exam item: Has C=C(C)[C@@H]1CC[C@]2(C(=O)NCCNCCNCCN)CC[C@]3(C)[C@H](CC[C@@H]4[C@@]5(C)CC[C@H](O)C(C)(C)[C@@H]5CC[C@]43C)[C@@H]12 a recorded MID b, average sensitivity of all cell line of particular subpanel greater than or equal to 8 µM?
Marked response: 1

---

inhibition at 32 µg/mL for assorted compounds
test system: Cryptococcus neoformans; assay: Antifungal growth inhibition, C. neoformans; settings: Cryptococcus neoformans, ATCC208821, read-out: % Growth inhibition

Example entries begin here.
INSERT INTO measurements (compound, assay_system, test_result) VALUES
  ('C=C(C)[C@@H]1CC[C@]2(C(=O)NCCNCCN)CC[C@]3(C)[C@H](CC[C@@H]4[C@@]5(C)CCC(=O)C(C)(C)[C@@H]5CC[C@]43C)[C@@H]12 [Compound 12]', 'Cryptococcus neoformans', '62.6%'),
  ('C=C(C)[C@@H]1CC[C@]2(C(=O)OC)CC[C@]3(C)[C@H](CC[C@@H]4[C@@]5(C)C/C(=C/NC(N)=O)C(=O)C(C)(C)[C@@H]5CC[C@]43C)[C@@H]12 [Compound 25]', 'Cryptococcus neoformans', '-7.93%'),
  ('C=C(C)[C@@H]1CC[C@]2(C(=O)OC)CC[C@]3(C)[C@H](CC[C@@H]4[C@@]5(C)C/C(=C/NC(N)=S)C(=O)C(C)(C)[C@@H]5CC[C@]43C)[C@@H]12 [Compound 26]', 'Cryptococcus neoformans', '-13%');

Alright, here's another compound for you.
Exam item: For the compound C=C(C)[C@@H]1CC[C@]2(C(=O)N3CCCNCC3)CC[C@]3(C)[C@H](CC[C@@H]4[C@@]5(C)CCC(=O)C(C)(C)[C@@H]5CC[C@]43C)[C@@H]12 [Compound 2] , report inhibition at 32 µg/mL.
Marked response: -5.9%
